Experiment: Stability of the compound in 0.01 N HCL at pH 2.0 assessed as half-life
Assay type: physicochemical
recorded-metric: half-life
Your answer should be a number followed by the unit of measure.

smiles_representation=C[C@H]1[C@@H](OCc2ccc(C(=O)O)cc2)O[C@@H]2O[C@@]3(C)CC[C@H]4[C@H](C)CC[C@@H]1[C@@]24OO3 recorded_metric=half-life recorded_result="11 h"
smiles_representation=C[C@H]1[C@@H](CCc2ccc(C(=O)O)cc2)O[C@@H]2O[C@@]3(C)CC[C@H]4[C@H](C)CC[C@@H]1[C@@]24OO3 recorded_metric=half-life recorded_result="165 h"

Okay, next one:
# input GET /values?readout=half-life&item= C[C@H]1[C@@H](CCCC(=O)O)O[C@@H]2O[C@@]3(C)CC[C@H]4[C@H](C)CC[C@@H]1[C@@]24OO3
# output 165 h
